- Assay Explanation: absorption spectrum, light emission spectrum, molecular extinction coefficient and quantum efficiency in solvents
- Format: physicochemical
- Measurement Context: solvent PBS
Measure Name: λem
Give the value; after it, write the unit.

// query Which measured λem value corresponds to CC1(C)C2=C3C=C(C(=O)[O-])C(=O)OC3CCN2c2ccc(S(=O)(=O)[O-])cc21.[Na+].[Na+] (centres unmarked) ?
// result 487 nm

* * *

- Assay Explanation: absorption spectrum, light emission spectrum, molecular extinction coefficient and quantum efficiency in solvents
- Assay type: physicochemical
- Measurement Context: solvent CH2Cl2
Define the label as class 1 when φ (quantum efficiency) is strictly less than 0.2 and as class 0 in all remaining cases.

Look over these answered cases.
| Compound | Answer Label |
| --- | --- |
| CCOC(=O)CCCC(=O)C1=CC2=C3N(CCC2OC1=O)c1ccc2ccccc2c1C3(C)C (centres unmarked) [Compound 62] | class 0 |
| CC1(C)C2=C3C=C(C(=O)CCCC(=O)[O-])C(=O)OC3CCN2c2ccc3cc(S(=O)(=O)[O-])ccc3c21.[Na+].[Na+] (centres unmarked) [Compound 16] | class 1 |
| CC1(C)C2=C3C=C(CC(=O)[O-])C(=O)OC3CCN2c2ccc(S(=O)(=O)[O-])cc21.[Na+].[Na+] (centres unmarked) [Compound 64] | class 1 |
| CC1(C)C2=C3C=C(C(=O)[O-])C(=O)OC3CCN2c2ccc(S(=O)(=O)[O-])cc21.[Na+].[Na+] (centres unmarked) [Compound 2] | class 1 |

// query Is 0.2 strictly greater than the compound's reported φ (quantum efficiency)? compound: CC1(C)C2=C3C=CC(=O)OC3CCN2c2ccc(S(=O)(=O)[O-])cc21.[Na+] (centres unmarked) [Compound 3]
// result class 0

Data origin: patent US11292798B2
